assay system: T1, his-tagged human CDH6 extracellular region protein (hCDH6 ECD-his) (human, UniProt P55285 19-615)
T1 construct: also called Human CDH6-his; hCDH6-his; not shown: his tag
T1 sequence: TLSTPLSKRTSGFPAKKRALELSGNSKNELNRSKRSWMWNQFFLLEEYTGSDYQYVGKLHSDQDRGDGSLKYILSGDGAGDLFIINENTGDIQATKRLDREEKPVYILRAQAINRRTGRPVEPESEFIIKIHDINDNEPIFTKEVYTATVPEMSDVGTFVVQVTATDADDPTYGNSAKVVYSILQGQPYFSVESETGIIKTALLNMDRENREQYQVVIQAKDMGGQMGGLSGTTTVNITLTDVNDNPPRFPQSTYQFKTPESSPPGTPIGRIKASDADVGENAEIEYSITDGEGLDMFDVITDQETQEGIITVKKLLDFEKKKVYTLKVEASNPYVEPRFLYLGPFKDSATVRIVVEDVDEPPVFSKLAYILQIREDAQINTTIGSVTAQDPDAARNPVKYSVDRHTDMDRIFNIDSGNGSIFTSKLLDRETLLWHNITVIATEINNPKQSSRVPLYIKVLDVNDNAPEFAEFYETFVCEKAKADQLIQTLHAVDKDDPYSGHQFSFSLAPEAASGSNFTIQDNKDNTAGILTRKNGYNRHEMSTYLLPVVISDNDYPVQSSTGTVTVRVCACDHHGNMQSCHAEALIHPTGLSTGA
assay details: ELISA, coated antigen
Protocol: Human CDH6 protein (hCDH6 ECD-his, conventionally synthesized), monkey CDH6 protein (cynoCDH6 ECD-his, conventionally synthesized; the cynoCDH6 ECD sequence was derived from Uniprot #A0A2K5TW62 (19-615)), and murine CDH6 protein (mCDH6 ECD-his, conventionally synthesized; the mCDH6 ECD sequence was derived from Uniprot #P97326 (19-615)) were diluted with PBS to a final concentration of 1 μg/mL, and added to a 96-well ELISA plate at 100 μL/well. The plate was incubated at 4° C. overnight. […]
// Max OD450 lookup, one value per entry
Give the value, in units of OD450, as a plain number.

Worked examples follow.
binder	Max OD450, OD450
hCDH6-6-H2L3 (antibody, V domains shown, Humanized) VH: EVQLVQSGAEVKKPGASVKVSCKASGYTFTDYYMAWVRQAPGQGLEWMGYIFPNSGGTDYSQKFKGRVTLTVDKSTSTVYMELSSLRSEDTAVYYCARELGADYGDYYAMDHWGQGTTVTVSS VL: DIQMTQSPSSLSASVGDRVTITCRASENIDSYLAWYQQKPGKSPQLLVYSATLLADGVPSRFSGSGSGTDYTLTISSLQPEDFATYYCQHYYRTPPTFGQGTKLEIK	2.09
hCDH6-6-H1L3 (antibody, V domains shown, Humanized) VH: EVQLVQSGAEVKKPGASVKVSCKASGYTFTDYYMAWVRQAPGQGLEWMGYIFPNSGGTDYSQKFKGRVTMTVDKSTSTVYMELSSLRSEDTAVYYCARELGADYGDYYAMDHWGQGTTVTVSS VL: DIQMTQSPSSLSASVGDRVTITCRASENIDSYLAWYQQKPGKSPQLLVYSATLLADGVPSRFSGSGSGTDYTLTISSLQPEDFATYYCQHYYRTPPTFGQGTKLEIK	1.99
hCDH6-6-H3L5 (antibody, V domains shown, Humanized) VH: EVQLVQSGAEVKKPGASVKVSCKASGYTFTDYYMAWVRQAPRQGLEWMGYIFPNSGGTDYSQKFKGRVTMTVDKSTSTVYMELSSLRSEDTAVYYCARELGADYGDYYAMDHWGQGTTVTVSS VL: DIVMTQSPLSLPVTPGEPASISCRASENIDSYLAWYLQKPGKSPQLLVYSATLLADGVPDRFSGSGSGTDFTLKISRVEAEDVGVYYCQHYYRTPPTFGQGTKLEIK	1.97
hCDH6-6-H1L1 (antibody, V domains shown, Humanized) VH: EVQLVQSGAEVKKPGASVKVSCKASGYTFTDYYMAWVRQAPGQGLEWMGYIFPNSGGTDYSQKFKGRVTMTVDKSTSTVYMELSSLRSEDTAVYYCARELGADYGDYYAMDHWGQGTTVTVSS VL: DIQMTQSPSSLSASVGDRVTITCRASENIDSYLAWYQQKPGKSPKLLLYSATLLADGVPSRFSGSGSGTDYTLTISSLQPEDFATYYCQHYYRTPPTFGQGTKLEIK	2.08

Tell us which Max OD450 value is on record for hCDH6-6-H1L2 (antibody, V domains shown, Humanized) VH: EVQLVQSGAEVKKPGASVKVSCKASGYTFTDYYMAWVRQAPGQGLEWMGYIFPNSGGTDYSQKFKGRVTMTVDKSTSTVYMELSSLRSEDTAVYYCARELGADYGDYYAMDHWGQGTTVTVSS VL: DIQMTQSPSSLSASVGDRVTITCRASENIDSYLAWYQQKPGKSPKLLVYSATLLADGVPSRFSGSGSGTDYTLTISSLQPEDFATYYCQHYYRTPPTFGQGTKLEIK 2.07
